Documented remaining at 12 h, 0.91 mg/mL across a set of compounds
- experimental-details: Serum stability assay (residual level by RP-HPLC)
- condition-notes: human
Non-standard residues stand in square brackets, D forms with d. Residues, ends and D or L forms follow the SMILES beside them. dPhe(3,4-Cl2) = N[C@H](Cc1ccc(Cl)c(Cl)c1)C(=O)O; dPhe(4-CF3) = N[C@H](Cc1ccc(C(F)(F)F)cc1)C(=O)O; dPhe(4-Cl) = N[C@H](Cc1ccc(Cl)cc1)C(=O)O; dPhe(4-F) = N[C@H](Cc1ccc(F)cc1)C(=O)O; d2Nal = N[C@H](Cc1ccc2ccccc2c1)C(=O)O; d(hLeu) = CC(C)CC[C@@H](N)C(=O)O

Please review the entries below; each comes with its answer.
CC(=O)N[C@H](CCCCN)C(=O)N[C@H](CCCCN)C(=O)N[C@H](CC(C)C)C(=O)N[C@H](CC(C)C)C(=O)N[C@H](Cc1ccc2ccccc2c1)C(=O)N[C@H](CCCCN)C(=O)N[C@H](CC(C)C)C(=O)N[C@H](CCCCN)C(=O)N[C@H](Cc1ccc2ccccc2c1)C(=O)N[C@H](CCCCN)C(=O)N[C@H](CCCCN)C(N)=O [LV-17] (Ac-[dK][dK][dL][dL][d2Nal][dK][dL][dK][d2Nal][dK][dK]-NH2)
97.2%
CC(=O)N[C@H](CCCNC(=N)N)C(=O)N[C@H](CCCCN)C(=O)N[C@H](CC(C)C)C(=O)N[C@H](CC(C)C)C(=O)N[C@H](Cc1ccc(F)cc1)C(=O)N[C@H](CCCCN)C(=O)N[C@H](CC(C)C)C(=O)N[C@H](CCCCN)C(=O)N[C@H](Cc1ccc(F)cc1)C(=O)N[C@H](CCCCN)C(=O)N[C@H](CCCNC(=N)N)C(N)=O [LV-5] (Ac-[dR][dK][dL][dL][dPhe(4-F)][dK][dL][dK][dPhe(4-F)][dK][dR]-NH2)
98.2%
CC(=O)N[C@H](CCCNC(=N)N)C(=O)N[C@H](CCCCN)C(=O)N[C@H](CC(C)C)C(=O)N[C@H](CC(C)C)C(=O)N[C@H](Cc1ccc(Cl)c(Cl)c1)C(=O)N[C@H](CCCCN)C(=O)N[C@H](CC(C)C)C(=O)N[C@H](CCCCN)C(=O)N[C@H](Cc1ccc(Cl)c(Cl)c1)C(=O)N[C@H](CCCCN)C(=O)N[C@H](CCCNC(=N)N)C(N)=O [LV-8] (Ac-[dR][dK][dL][dL][dPhe(3,4-Cl2)][dK][dL][dK][dPhe(3,4-Cl2)][dK][dR]-NH2)
97.6%
CC(=O)N[C@H](CCCNC(=N)N)C(=O)N[C@H](CCCNC(=N)N)C(=O)N[C@H](CC(C)C)C(=O)N[C@H](CC(C)C)C(=O)N[C@H](Cc1ccc2ccccc2c1)C(=O)N[C@H](CCCNC(=N)N)C(=O)N[C@H](CC(C)C)C(=O)N[C@H](CCCNC(=N)N)C(=O)N[C@H](Cc1ccc2ccccc2c1)C(=O)N[C@H](CCCNC(=N)N)C(=O)N[C@H](CCCNC(=N)N)C(N)=O [LV-1] (Ac-[dR][dR][dL][dL][d2Nal][dR][dL][dR][d2Nal][dR][dR]-NH2)
98.5%
CC(=O)N[C@H](CCCNC(=N)N)C(=O)N[C@H](CCCNC(=N)N)C(=O)N[C@H](CC(C)C)C(=O)N[C@H](CC(C)C)C(=O)N[C@H](Cc1ccc2ccccc2c1)C(=O)N[C@H](CCCCN)C(=O)N[C@H](CC(C)C)C(=O)N[C@H](CCCCN)C(=O)N[C@H](Cc1ccc2ccccc2c1)C(=O)N[C@H](CCCCN)C(=O)N[C@H](CCCNC(=N)N)C(N)=O [LV-24] (Ac-[dR][dR][dL][dL][d2Nal][dK][dL][dK][d2Nal][dK][dR]-NH2)
98.3%
CC(=O)N[C@H](CCCNC(=N)N)C(=O)N[C@H](CCCCN)C(=O)N[C@H](CCC(C)C)C(=O)N[C@H](CCC(C)C)C(=O)N[C@H](Cc1ccc2ccccc2c1)C(=O)N[C@H](CCCNC(=N)N)C(=O)N[C@H](CCC(C)C)C(=O)N[C@H](CCCCN)C(=O)N[C@H](Cc1ccc2ccccc2c1)C(=O)N[C@H](CCCNC(=N)N)C(=O)N[C@H](CCCCN)C(N)=O [LV-14] (Ac-[dR][dK][d(hLeu)][d(hLeu)][d2Nal][dR][d(hLeu)][dK][d2Nal][dR][dK]-NH2)
97.1%
CC(=O)N[C@H](CCCNC(=N)N)C(=O)N[C@H](CCCCN)C(=O)N[C@H](CC(C)C)C(=O)N[C@H](CC(C)C)C(=O)N[C@H](Cc1ccc(C(F)(F)F)cc1)C(=O)N[C@H](CCCCN)C(=O)N[C@H](CC(C)C)C(=O)N[C@H](CCCCN)C(=O)N[C@H](Cc1ccc(C(F)(F)F)cc1)C(=O)N[C@H](CCCCN)C(=O)N[C@H](CCCNC(=N)N)C(N)=O [LV-9] (Ac-[dR][dK][dL][dL][dPhe(4-CF3)][dK][dL][dK][dPhe(4-CF3)][dK][dR]-NH2)
97.3%
CC(=O)N[C@H](CCCNC(=N)N)C(=O)N[C@H](CCCCN)C(=O)N[C@H](CC(C)C)C(=O)N[C@H](CC(C)C)C(=O)N[C@H](Cc1ccc2ccccc2c1)C(=O)N[C@H](CCCCN)C(=O)N[C@H](CC(C)C)C(=O)N[C@H](CCCCN)C(=O)N[C@H](Cc1ccc2ccccc2c1)C(=O)N[C@H](CCCCN)C(=O)N[C@H](CCCNC(=N)N)C(N)=O [LV-18] (Ac-[dR][dK][dL][dL][d2Nal][dK][dL][dK][d2Nal][dK][dR]-NH2)
97.6%

Continue with the next compound.
Task item: # query: remaining at 12 h, 0.91 mg/mL of entry CC(=O)N[C@H](CCCNC(=N)N)C(=O)N[C@H](CCCCN)C(=O)N[C@H](CC(C)C)C(=O)N[C@H](CC(C)C)C(=O)N[C@H](Cc1ccc(Cl)cc1)C(=O)N[C@H](CCCCN)C(=O)N[C@H](CC(C)C)C(=O)N[C@H](CCCCN)C(=O)N[C@H](Cc1ccc(Cl)cc1)C(=O)N[C@H](CCCCN)C(=O)N[C@H](CCCNC(=N)N)C(N)=O [LV-7] (Ac-[dR][dK][dL][dL][dPhe(4-Cl)][dK][dL][dK][dPhe(4-Cl)][dK][dR]-NH2)
Reply: 98.9%

====

# Number of mice that died on each day after infection: day 8 per entry
- Tested on: Escherichia coli ATCC 25922
- experimental-details: Oral formulations on mice with systemic bacterial infection
- Type: in vivo, ICR mice
- condition-notes: 0.2 mg/kg gavage, three times a day for 7 days, n = 10
Non-standard residues stand in square brackets, D forms with d. Residues, ends and D or L forms follow the SMILES beside them. dPhe(3,4-F2) = N[C@H](Cc1ccc(F)c(F)c1)C(=O)O; d2Nal = N[C@H](Cc1ccc2ccccc2c1)C(=O)O; dNle = CCCC[C@@H](N)C(=O)O
Please answer using the number first and the unit second.

Worked examples, 2 molecules total:
CC(=O)N[C@H](CCCCN)C(=O)N[C@H](CCCCN)C(=O)N[C@H](CC(C)C)C(=O)N[C@H](CC(C)C)C(=O)N[C@H](Cc1ccc(F)c(F)c1)C(=O)N[C@H](CCCNC(=N)N)C(=O)N[C@H](CC(C)C)C(=O)N[C@H](CCCCN)C(=O)N[C@H](Cc1ccc(F)c(F)c1)C(=O)N[C@H](CCCNC(=N)N)C(=O)N[C@H](CCCCN)C(N)=O [LV-25] (Ac-[dK][dK][dL][dL][dPhe(3,4-F2)][dR][dL][dK][dPhe(3,4-F2)][dR][dK]-NH2)
1 Mouse
CC(=O)N[C@H](CCCCN)C(=O)N[C@H](CCCCN)C(=O)N[C@H](CC(C)C)C(=O)N[C@H](CC(C)C)C(=O)N[C@H](Cc1ccc2ccccc2c1)C(=O)N[C@H](CCCNC(=N)N)C(=O)N[C@H](CC(C)C)C(=O)N[C@H](CCCCN)C(=O)N[C@H](Cc1ccc2ccccc2c1)C(=O)N[C@H](CCCNC(=N)N)C(=O)N[C@H](CCCCN)C(N)=O [LV-19] (Ac-[dK][dK][dL][dL][d2Nal][dR][dL][dK][d2Nal][dR][dK]-NH2)
1 Mouse

Task item: What does the record list as Number of mice that died on each day after infection: day 8 for CCCC[C@@H](NC(=O)[C@@H](CCCCN)NC(=O)[C@@H](CCCNC(=N)N)NC(C)=O)C(=O)N[C@H](CCCC)C(=O)N[C@H](Cc1ccc2ccccc2c1)C(=O)N[C@H](CCCNC(=N)N)C(=O)N[C@H](CCCC)C(=O)N[C@H](CCCCN)C(=O)N[C@H](Cc1ccc2ccccc2c1)C(=O)N[C@H](CCCNC(=N)N)C(=O)N[C@H](CCCCN)C(N)=O [LV-12] (Ac-[dR][dK][dNle][dNle][d2Nal][dR][dNle][dK][d2Nal][dR][dK]-NH2) ?
Reply: 0 Mouse

Origin of the recorded values: patent US20250304620A1
